B1: Pituitary-specific positive transcription factor 1, residues 130 to 198; numbered along this chain, P28069 (parent)
chain: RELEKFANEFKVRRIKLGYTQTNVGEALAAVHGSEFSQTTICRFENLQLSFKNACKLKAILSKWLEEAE

Variants of: B1
PROCEDURE DETAILS: abundance fitness (aPCA) (normalised: wild type 0, dead -1); higher = more abundant; growth selection in yeast, the domain comes from the species named
EXPERIMENTAL PARAMETERS: Homo sapiens
Assignment: determine reported abundance fitness for the given variants.
Reply with the value as a number alone.

Consider the variant `E69L` and give its measured abundance fitness.
-0.719

What measured abundance fitness goes with `K58R` ?
-0.184

Requested read-out: abundance fitness. Entry: `I41Q`
-0.785

Using the record for `Q48E` , report its abundance fitness.
-0.003

Given the variant `N23A` , what is its reported abundance fitness?
0.267

Which abundance fitness value belongs to `L3G` ?
-0.571

abundance fitness lookup needed for `K52S` , thanks.
-0.002

Entry `A7R` has what abundance fitness?
-0.7

# lookup: abundance fitness of `L28T`
-0.226

Which value of abundance fitness has been reported for `A54R` in the records?
-0.974

Data request, read-out abundance fitness, for `K63C`
-0.443

What measured abundance fitness goes with `Q48H` ?
-0.66

What value of abundance fitness has been recorded for this entry: `C55M`
0.145

Name the reported abundance fitness value associated with the variant `K16D`
-0.665

Can you look up the measured abundance fitness of `I41V` for me?
-0.523

So what does the record say about abundance fitness for `L57D` ?
-0.67

Quick one: abundance fitness for `F51C` ?
-0.534

# abundance fitness lookup, item `K16V`
-0.812

Tell me the measured abundance fitness of `C55N` , please.
-0.201

What value of abundance fitness has been reported for the following variant? `F6P`
-0.835

Given the variant `F44D` , what is its reported abundance fitness?
-0.866

Request the reported abundance fitness associated with `E66M`
-0.332

Give the measured abundance fitness of `L28I` .
-0.276

// query abundance fitness value for entry `L17G`
-0.889

Would you mind telling me what abundance fitness value was observed for `Q48M` ?
-0.505

Given the entry `S62Y` , report its measured abundance fitness.
-0.585

Requested field: abundance fitness. Item: `S50Q`
-0.533

# abundance fitness lookup, item `F44P`
-0.936

So what does the record say about abundance fitness for `A29L` ?
-0.829

Name the reported abundance fitness value associated with the variant `F36P`
-0.702

What measured abundance fitness goes with `E45V` ?
-0.809

abundance fitness lookup needed for `I15Y` , thanks.
-0.761

Name the reported abundance fitness value associated with the variant `V12K`
-0.071

// abundance fitness lookup, key: `T39M`
-0.147

Report abundance fitness for `L65N` please.
-0.955

Name the recorded abundance fitness for `K58P` .
-0.708

Need abundance fitness, item `E45S`
-0.92

Suppose we examine the variant `T39W` ; what abundance fitness value has been reported?
-0.393
